# Assay Comment: log P by HPLC on reversed-phase column (C18), EEC Directive 79/831 Annex V.A8
# Format: physicochemical
# Test Parameters: C18, 40° C., neutral
# Description: The log P data were determined in accordance with the EEC Directive 79/831 Annex V.A8 by HPLC (High Performance Liquid Chromatography) on a reversed-phase column (C18) using the following methods: […] Calibration was carried out with the help of unbranched alkan-2-ones (consisting of 3 to 13 or 16 carbon atoms) with known logP values (determination of the logP values via the retention times by means of linear interpolation between two subsequent alkanones).
Assay Endpoint: log p neutral
Could you keep your reply to the number by itself?

The examples below pair each entry with its known result.
- Structure Smiles String: "CCN(C)C=Nc1cc(C)c(-c2ccc(Cl)c(C)c2)cc1C"
  log p neutral: 5.59
- Structure Smiles String: "CCN(C)C=Nc1cc(Cl)c(Oc2nc(C(C)(C)C)ns2)cc1C"
  log p neutral: 5.31
- Structure Smiles String: "Cc1cc(Oc2cc(C(C)(C)C)nn2C)c(Cl)cc1N=CN1CCCCC1"
  log p neutral: 5.34
- Structure Smiles String: "CC(C)(C)c1cccc(Oc2cc(Cl)c(N=CN3CCCCC3)cc2Cl)c1"
  log p neutral: 6.41

Turning now to a further record.
Request: Name the reported log p neutral value associated with the molecule `CCN(C)C=Nc1cc(C)c(Oc2ccc(Cl)c(C(F)(F)F)c2)cc1Cl`
Response: 5.49

Hello, the source for this data is patent US20100113276A1, in case you need it.
